Assignment: determine reported response for the given compounds.
Target: Beta-2 adrenergic receptor (Homo sapiens)
Assay: agonist-induced loss of surface beta2AR – cell-based, FAP fluorogen, flow cytometry, primary screen (AID 504454)
Conditions: Am2.2-beta2AR cells, FAP receptor internalization, active compounds read high, concentration not given here
The whole screen tested about 340,000 compounds, of which about 1,400 (0.41%) were called active. The entries come from a sample that favours actives as a whole.
# number only, unit % dropped from output

Exercise: I'd like to know its response. The compound in question is "Cn1c(=S)sc2ccc3ccccc3c21"
Solution: 59.5

Exercise: Next compound: "COCCCn1c(SCc2cccc(OC)c2)nc2cc(OC)c(OC)cc2c1=N"
Solution: 7.49

Exercise: For "Cc1nc2ccccc2c(C(=O)O)c1-c1ccccn1" then?
Solution: 5.02

Exercise: Now the compound "Cc1cc(C)n(CCNS(=O)(=O)c2ccc(Cl)cc2)n1"
Solution: -1.1

Exercise: Then "CCN(CC(=O)Nc1ccccc1C(F)(F)F)C(=O)CSCc1c(C)noc1C" ?
Solution: -3.25

Exercise: What about "CCCCCc1ccc(-c2ccc(C(=O)O)cc2)nc1" ?
Solution: -1.17

Exercise: Same question, "O=C(/C=C/c1ccco1)NC(=S)N1CCCCC1" this time
Solution: 88.5

Exercise: Continue with Cc1nnc(SCC(=O)N2c3ccccc3C(C)(c3ccc(Cl)cc3)CC2(C)C)s1 (stereo not drawn)
Solution: 5.93

Exercise: Record: CSCC(=O)N1CCCC(C(=O)c2cc(F)ccc2F)C1 (stereo not drawn)
Solution: -14.2

Exercise: Another: "O=C(COc1cccnc1[N+](=O)[O-])Nc1ccc(Cl)cc1F"
Solution: -3.75

Exercise: // query: "Cc1nc2ccccc2c(-c2ccccc2)c1C(=O)c1ccccc1"
Solution: 105

Exercise: Note, next up: "CC(C)NC(=O)COCc1cc(-c2ccc3c(c2)OCO3)on1"
Solution: -5.4

Exercise: What do we get for "Cc1nc2ccccc2c(C)c1C(=O)c1ccc(F)cc1" ?
Solution: 1.92

----------
Would you kindly list response for each of these compounds?
Molecular target: Beta-2 adrenergic receptor (Homo sapiens) (UniProt P07550)
Sequence (P07550 whole entry, looked up): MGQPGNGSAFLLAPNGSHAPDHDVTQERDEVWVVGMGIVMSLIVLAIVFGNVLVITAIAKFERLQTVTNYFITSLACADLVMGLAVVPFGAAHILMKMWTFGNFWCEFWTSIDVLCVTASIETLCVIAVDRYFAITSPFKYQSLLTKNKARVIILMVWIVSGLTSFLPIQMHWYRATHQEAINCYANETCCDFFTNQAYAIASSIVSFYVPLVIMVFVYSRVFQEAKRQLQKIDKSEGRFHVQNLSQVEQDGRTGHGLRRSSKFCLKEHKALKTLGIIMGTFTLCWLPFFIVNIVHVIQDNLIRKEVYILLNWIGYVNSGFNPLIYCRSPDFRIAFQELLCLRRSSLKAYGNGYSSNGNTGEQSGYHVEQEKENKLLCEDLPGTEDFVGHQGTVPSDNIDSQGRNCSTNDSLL
Test: agonist-induced loss of surface beta2AR – cell-based, FAP fluorogen, flow cytometry, primary screen (AID 504454)
Details: Am2.2-beta2AR cells, FAP receptor internalization, active compounds read high, concentration not given here
Among all 340,000 compounds or so, about 1,400 (0.41%) were called active. What follows is part of a selection rich in actives, with near analogues and random picks from the rest.
Please give a number only; it is taken to be in %.

Exercise: Request - read-out response | tested on Beta-2 adrenergic receptor (Homo sapiens) (UniProt P07550) | compound Cc1c(/C=N/N2C(=O)C3C4C=CC(C4)C3C2=O)c2ccccc2n1C (centres undefined)
Solution: -4.99

Exercise: What do you have for "CC(=O)Nc1ccc(NC(=O)COC(=O)c2ccccc2C(=O)c2ccccc2)cc1" ?
Solution: -9.28

Exercise: Try the compound COc1ccc2c(c1OC)C(=O)OC2Nc1nc(-c2ccccc2)cs1 (centres undefined)
Solution: 43.4

Exercise: Same again, this time with "CC(C)OC(=O)CN1C(=O)C(=O)c2ccccc21"
Solution: 7.48

Exercise: Then CCOC(=O)C1CCCN(C(=O)/C=C/c2ccc(OC)cc2)C1 (centres undefined) ?
Solution: 0.35

Exercise: Another compound: CC1=C(C)CC(C(=O)NNC(=O)c2ccccc2O)C(C(=O)O)C1 (centres undefined)
Solution: -13

Exercise: Now the compound "CCCCN=C1N/C(=C\c2ccco2)C(=O)N1c1ccccc1"
Solution: 0.77

Exercise: Queued: "Cc1cc(C)nc(S/C=C/C(=O)c2ccccc2)n1"
Solution: 41.9

Exercise: Then "CC(C)c1ccc(NC(=O)[C@@H](NC(=O)N2CC(=O)Nc3ccccc32)C(C)C)cc1" ?
Solution: -13

Exercise: One more compound: C#CCOCCOCCOCCNc1nc(N2CCN(C(=O)[C@H](CCCN=C(N)N)n3cc(C(N)[C@@H](C)CC)nn3)CC2)nc(N2CCN(C(=O)[C@H](CO)n3cc([C@@H](N)C(C)C)nn3)CC2)n1 (some centres undefined)
Solution: -10.2

Exercise: Now consider CC1=C(C)CC(C(=O)NNC(=O)c2csc3c2CCC(C(C)(C)C)C3)C(C(=O)O)C1 (centres undefined) .
Solution: 61

Exercise: Subsequent entry: "Cc1ccc(CN2CCN(/N=C/c3cccnc3)CC2)c(C)c1"
Solution: 4.74

Exercise: Next: "C#CCOCCOCCOCCNc1nc(N2CCN(C(=O)Cn3cc(CCO)nn3)CC2)nc(N2CCN(C(=O)[C@H](CCCCN)n3cc(CCCC)nn3)CC2)n1"
Solution: 0.16

Exercise: Now the compound "COCc1cc(C)nc2sc(C(=O)NC3CCCCC3)c(N)c12"
Solution: -21.3

Exercise: Next: "N#Cc1cccc(NC(=O)COC(=O)c2ccccc2C(=O)c2ccc(Cl)c([N+](=O)[O-])c2)c1"
Solution: 46.3

Exercise: Lookup "C#CCOCCOCCOCCNc1nc(N2CCN(C(=O)[C@H](CCC(=O)O)n3cc(CN)nn3)CC2)nc(N2CCN(C(=O)[C@H](CCC(=O)O)n3cc(CN)nn3)CC2)n1"
Solution: -3.45

Exercise: Can you handle O=C1C2C3C=CC(C4CC34)C2C(=O)N1/N=C/c1ccc(-c2ccccc2[N+](=O)[O-])o1 (centres undefined) next?
Solution: 42.1

Exercise: Next: "NC(N)=N/N=C/c1ccc(OCc2ccc(Cl)cc2Cl)cc1"
Solution: 59.6

Exercise: // same read-out, input: COc1ccc(C2c3[nH]c4ccccc4c3CCN2CCCn2cccn2)cc1C (centres undefined)
Solution: -1.99

Exercise: And then "CCC(C)(C)NC(=O)CN(C(=O)C(=O)Nc1ccc2c(c1)OCCO2)C(C)(C)CC" , what is it?
Solution: 0.65

Exercise: Moving on to "O=C(c1ccccc1)c1ccc2nc(N3CCCCC3)c3nncn3c2c1"
Solution: -11.4

Exercise: Try this compound next: "Clc1ccc2nc(-c3ccccc3)nc(C(Cl)Cl)c2c1"
Solution: 50

Exercise: And for "C#CCOCCOCCOCCNc1nc(N2CCN(C(=O)CCCCCCCCCCNC(=O)[C@H](CCCCN)n3cc(C)nn3)CC2)nc(N2CCN(C(=O)CCCCCCCCCCNC(=O)[C@H](CO)n3cc(CCCSC)nn3)CC2)n1" ?
Solution: 77

Exercise: // next record "CC(=O)Nc1ccc(Nc2c3ccccc3nc3ccccc23)cc1"
Solution: 51.1

Exercise: And "O=C1C=C(NS(=O)(=O)c2ccccc2)C(=O)c2ccccc21" ?
Solution: 1.55

Exercise: Likewise for "NC(N)=Nc1nc(-c2ccccc2)c2cc(Cl)ccc2n1" ?
Solution: 8.97

Exercise: Request: "Cc1nc2ccccc2nc(C)c1=NOCc1ccc(Cl)cc1Cl"
Solution: -2.95

Exercise: Follow-up entry: Clc1cccc(-c2nc(NCC3CCCO3)c3ccccc3n2)c1 (centres undefined)
Solution: -5.27

Exercise: What do you get for "COc1ccc(Cl)cc1NC(=O)CN1CCN(C(=O)N2CCOCC2)CC1" ?
Solution: 1.88

Exercise: Then this compound: "CC(=O)Nc1ccc(S(=O)(=O)N(C)c2nc3ccccc3nc2Cl)cc1"
Solution: 0.46

Exercise: Here is the next compound: "O=C(NCC1CC1)c1onc(CSc2ccccc2)c1C(=O)NCC1CC1"
Solution: -4.02

Exercise: Would you kindly repeat that for "C#CCOCCOCCOCCNc1nc(N2CCN(C(=O)CCCCCCCCCCNC(=O)Cn3cc(CCCCCN)nn3)CC2)nc(N2CCN(C(=O)CCCCCCCCCCNC(=O)[C@H](CO)n3cc(CCCSC)nn3)CC2)n1" ?
Solution: 64.5

Exercise: Do the same for "Cc1ccc(S(=O)(=O)N(CC(=O)NN=C2CCN(C)CC2)c2ccc(F)cc2)cc1" please
Solution: -3.48

Exercise: Queued: CCc1ccccc1NC(=O)[C@@H]1CCC(=O)N1C1OC(=O)c2c1ccc(OC)c2OC (some centres undefined)
Solution: 11.2
